Origin of measurements: paper PMC10786919

# PROTOCOL_DESCRIPTION: physchem
Positions of bridges follow the written chain, without caps; N, C: chain ends. Non-standard residues stand in square brackets, D forms with d. Residues, ends and D or L forms follow the SMILES beside them. Lys(N3) = [N-]=[N+]=NCCCC[C@H](N)C(=O)O; R8 = C=CCCCCCC[C@@](C)(N)C(=O)O; Cba = N[C@@H](CC1CCC1)C(=O)O; S5 = C=CCCC[C@](C)(N)C(=O)O; βAla = NCCC(=O)O
satisfied means recorded EPSA is 200 A^2 or above; not satisfied means it is below 200 A^2.

COMPOUND | CLASS_NAME
CC(=O)N[C@@H](CCCCN=[N+]=[N-])C(=O)NCCC(=O)N[C@@H](CC(C)C)C(=O)N[C@H](C(=O)N[C@@H](Cc1ccccc1)C(=O)N[C@]1(C)CCCCCCC=CCCC[C@@](C)(C(=O)N[C@H](C)C(=O)N[C@@H](C)C(=O)N[C@@H](C)C(N)=O)NC(=O)[C@H](CC2CCC2)NC(=O)[C@H](CCC(N)=O)NC(=O)[C@H](C)NC(=O)[C@H](Cc2c[nH]c3ccccc23)NC(=O)[C@H](Cc2ccc(O)cc2)NC(=O)[C@H](CCC(=O)O)NC1=O)[C@@H](C)O [MP-475] (Ac-[Lys(N3)][βAla]LTF[R8]EYWAQ[Cba][S5][dA]AA-NH2; staple 6-13) | satisfied
CC(=O)N[C@@H](CCCCN=[N+]=[N-])C(=O)NCCC(=O)N[C@@H](CC(C)C)C(=O)N[C@H](C(=O)N[C@@H](Cc1ccccc1)C(=O)N[C@]1(C)CCCCCCC=CCCC[C@@](C)(C(=O)N[C@@H](CO)C(=O)N[C@@H](C)C(=O)N[C@@H](C)C(N)=O)NC(=O)[C@H](CC2CCC2)NC(=O)[C@H](CCC(N)=O)NC(=O)[C@H](C)NC(=O)[C@H](Cc2c[nH]c3ccccc23)NC(=O)[C@H](Cc2ccc(O)cc2)NC(=O)[C@@H]2CCCN2C1=O)[C@@H](C)O [MP-8834] | not satisfied
CC(C)C[C@@H]1NC(=O)[C@H](C)NC(=O)[C@H](Cc2c[nH]c3ccccc23)NC(=O)[C@H](Cc2ccc(O)cc2)NC(=O)[C@H](CCC(=O)O)NC(=O)[C@](C)(NC(=O)[C@H](Cc2ccccc2)NC(=O)[C@H](CO)NC(=O)[C@@H](NC(=O)CCNC(=O)[C@@H](N)CCCCN=[N+]=[N-])[C@@H](C)O)CCCCCCC=CCCC[C@@](C)(C(N)=O)NC(=O)[C@H](CC(C)C)NC1=O [MP-0177] | satisfied
CC(C)C[C@H](NC(=O)CCNC(=O)[C@@H](N)CCCCN=[N+]=[N-])C(=O)N[C@H](C(=O)N[C@@H](Cc1ccccc1)C(=O)N[C@]1(C)CCCCCCC=CCCC[C@@](C)(C(N)=O)NC(=O)[C@H](CC2CCC2)NC(=O)[C@H](CCC(N)=O)NC(=O)[C@H](C)NC(=O)[C@H](Cc2c[nH]c3ccccc23)NC(=O)[C@H](Cc2ccc(O)cc2)NC(=O)[C@H](CCC(=O)O)NC1=O)[C@@H](C)O [MP-327] (H-[Lys(N3)][βAla]LTF[R8]EYWAQ[Cba][S5]-NH2; staple 6-13) | satisfied
CC(=O)N[C@@H](CCCCN=[N+]=[N-])C(=O)NCCC(=O)N1CCC[C@H]1C(=O)N[C@H](C(=O)N[C@@H](Cc1ccccc1)C(=O)N[C@]1(C)CCCCCCC=CCCC[C@@](C)(C(=O)N[C@@H](CO)C(=O)N[C@@H](C)C(=O)N[C@@H](C)C(N)=O)NC(=O)[C@H](CC2CCC2)NC(=O)[C@H](CCC(N)=O)NC(=O)[C@H](C)NC(=O)[C@H](Cc2c[nH]c3ccccc23)NC(=O)[C@H](Cc2ccc(O)cc2)NC(=O)[C@H](CCC(=O)O)NC1=O)[C@@H](C)O [MP-259] (Ac-[Lys(N3)][βAla]PTF[R8]EYWAQ[Cba][S5]SAA-NH2; staple 6-13) | satisfied
CC(=O)N[C@@H](CCCCN=[N+]=[N-])C(=O)NCCC(=O)N[C@H]1CCCCNC(=O)CC[C@@H]2NC(=O)[C@@](C)(CCCCCCC=CCCC[C@@](C)(C(=O)N[C@@H](CO)C(=O)N[C@@H](C)C(=O)N[C@@H](C)C(N)=O)NC(=O)[C@H](CC3CCC3)NC(=O)[C@H](CCC(N)=O)NC(=O)[C@H](C)NC(=O)[C@H](Cc3c[nH]c4ccccc34)NC(=O)[C@H](Cc3ccc(O)cc3)NC2=O)NC(=O)[C@H](Cc2ccccc2)NC(=O)[C@H]([C@@H](C)O)NC1=O [MP-002] | not satisfied
